- Test system: A498 renal
- assay-name: NCI tumour cell line growth inhibition, 48 h
readout-type: GI50

Short answer on A498 renal for Cc1onc(-c2ccccc2)c1C(=O)N/N=C/c1cc(Cl)cc(Cl)c1O , GI50: 15000 nM

Short answer on A498 renal for O=c1c2c(nc3n1CCS3)[nH]c1cc([N+](=O)[O-])ccc12 , GI50: > 100000 nM

Short answer on A498 renal for COc1cc(/C=C/c2cc(/C=C/c3ccc(O)c(OC)c3)n(C(=O)c3ccc(Cl)cc3)n2)ccc1O , GI50: 2710 nM

Short answer on A498 renal for C=CN(C(=O)N1CCN(c2cc3c(cc2F)c(=O)c(C(=O)O)cn3C2CC2)CC1)c1nc(-c2ccc(OC)cc2)cs1 , GI50: 2930 nM

Short answer on A498 renal for Cc1nn(CNc2ccccc2C(F)(F)F)c(=S)n1/N=C/c1cccc2cccnc12 , GI50: > 100000 nM

Short answer on A498 renal for CN[C@H]1CN(c2ccc3c(=O)c(C(=O)O)cn(-c4nccs4)c3n2)C[C@@H]1OC , GI50: 273 nM

Short answer on A498 renal for COc1cc2c(cc1OC(C)C)[C@H](c1ccc(Cl)cc1)N(c1ccc(N(C)CC3CCC(N4CCN(C)C(=O)C4)CC3)cc1)C(=O)C2 (stereo partly drawn) , GI50: 1380 nM

Short answer on A498 renal for CNC(=O)c1c(C)oc2cc(Oc3ncnc4cc(OC)c(OC)cc34)ccc12 , GI50: 946 nM
